Biological target: T1, Spy_(29-124) R50D (UniProt P77754 52-147, R50D)
T1 construct: source: E. coli BL21 (DE3), purified (Ni-NTA, cation exchange, SEC); not shown: His6, N-terminal, cleaved; SUMO, N-terminal, cleaved
T1 sequence (looked up): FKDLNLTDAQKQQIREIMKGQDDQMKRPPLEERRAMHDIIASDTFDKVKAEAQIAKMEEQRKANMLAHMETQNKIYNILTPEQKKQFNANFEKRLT
Test: BLI; Octet RED96; client biotinylated and loaded on streptavidin sensors; Spy or Spy variant in solution at 0.25, 0.5, 1, 1.5 and 2 μM; 40 mM HEPES, 150 mM NaCl, pH 7.5; Kd calculated as koff/kon
Settings: both partners purified
pKd: −log10 of the molar value.

>  <binder>
Im7 H40W L53A I54A (natural protein, biotin (EZ-link NHS-biotin, 1:1 molar ratio of biotin to protein), Im7 (colicin E7 immunity protein) with H40W L53A I54A; Spy was made with an N-terminal His6-SUMO tag that was cleaved; also called Im7AAW; partially folded client; source: purified by a similar procedure to Spy) MELKNSISDYTEAEFVQLLKEIEKENVAATDDVLDVLLEWFVKITEHPDGTDAAYYPSDNRDDSPEGIVKEIKEWRAANGKPGFKQG

>  <pKd>
5.57

$$$$
